Tested on: AMBROSIA ARTEMISIIFOLIA, L.
ASSAY REMARKS: Postemergence herbicidal evaluation, AMBEL (Ragweed, Common)
Assay type: in vivo
CONDITIONS: 0.250 kg/ha
Note to self: values exactly at 7 are satisfied. So Herbicidal effect rating, AMBEL at or above 7 is satisfied, below is not satisfied.

Before answering, review these 3 worked examples.
* Cn1c(=O)[nH]c(=O)n(-c2cc(Oc3c(F)cc(C(F)(F)F)cc3Cl)ccc2F)c1=O [C, reference compound] | not satisfied
* COC(=O)Cn1c(=O)n(C)c(=O)n(-c2cc(Oc3c(F)cc(C(F)(F)F)cc3Cl)ccc2Br)c1=O [Compound 2] | satisfied
* COC(=O)Cn1c(=O)n(C)c(=O)n(-c2cc(Oc3ccc(C(F)(F)F)cc3Cl)ccc2[N+](=O)[O-])c1=O [Compound 3] | satisfied

For this compound, is measured Herbicidal effect rating, AMBEL 7 or higher? COC(=O)Cn1c(=O)n(C)c(=O)n(-c2cc(Oc3c(F)cc(C(F)(F)F)cc3Cl)ccc2F)c1=O [Compound 4]
satisfied

----------
Tested on: GALIUM APARINE
ASSAY REMARKS: Postemergence herbicidal evaluation, GALAP (Galium);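 further: higher means more injury with 8 approaching complete kill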
Assay type: in vivo
Parameters: key: 0-9 visual rating scale vs untreated control
CONDITIONS: Rate 0.125 kg/ha
Procedure: In the tests, seedling plants are grown in jiffy flats for about two weeks. The test compounds are dispersed in 50/50 acetone/water mixtures containing 0.5% TWEEN®20, a polyoxyethylene sorbitan monolaurate surfactant of Atlas Chemical Industries, in sufficient quantities to provide the equivalent of about 0.125 kg to 0.500 kg per hectare of active compound when applied to the plants through a spray nozzle operating at 40 psi for a predetermined time. […]
QUANTITY KIND: GALAP

Take a look at these entries with their results.
- COC(=O)Cn1c(=O)n(C)c(=O)n(-c2cc(Oc3ccc(C(F)(F)F)cc3Cl)ccc2Cl)c1=O [Compound 39]: 8.0
- Cn1c(=O)[nH]c(=O)n(-c2cc(Oc3ccc(C(F)(F)F)cc3Cl)ccc2Cl)c1=O [F, reference compound]: 6.0
- Cn1c(=O)[nH]c(=O)n(-c2cc(Oc3c(F)cc(C(F)(F)F)cc3Cl)ccc2[N+](=O)[O-])c1=O [D, reference compound]: 9.0
- Cn1c(=O)[nH]c(=O)n(-c2cccc(Oc3ccc(C(F)(F)F)cc3Cl)c2)c1=O [E, reference compound]: 4.0

Next, consider the following compound.
Recall and state the measured GALAP for COC(=O)Cn1c(=O)n(C)c(=O)n(-c2cc(Oc3c(F)cc(C(F)(F)F)cc3Cl)ccc2[N+](=O)[O-])c1=O [Compound 16] .
9.0

----------
Test system: CYPERUS IRIA
ASSAY REMARKS: Preemergence weed control under flooded paddy conditions, CYPIR (Rice Flatsedge)
Format: in vivo
CONDITIONS: 0.250 kg/ha, preemergence, 3-4 weeks after treatment
QUANTITY KIND: Herbicidal effect rating, CYPIR

• COC(=O)Cn1c(=O)n(C)c(=O)n(-c2cc(Oc3ccc(C(F)(F)F)cc3Cl)ccc2Cl)c1=O = 9.0
• C=CCn1c(=O)n(CC(=O)OCC)c(=O)n(-c2cc(Oc3ccc(C(F)(F)F)cc3Cl)ccc2[N+](=O)[O-])c1=O = 9.0
• COC(=O)Cn1c(=O)n(C)c(=O)n(-c2cc(Oc3c(Cl)cccc3Cl)ccc2[N+](=O)[O-])c1=O = 0.0

Next, consider the following molecule.
Recall and state the measured Herbicidal effect rating, CYPIR for COC(=O)Cn1c(=O)n(C)c(=O)n(-c2cc(Oc3c(Cl)cc(Cl)cc3Cl)ccc2[N+](=O)[O-])c1=O .
9.0

----------
Tested on: GLYCINE MAX(L) MERR. CV. WILLIAMS
ASSAY REMARKS: Postemergence herbicidal evaluation, GLXMAW (Soybean, Williams)
Type: in vivo
Set-up: key: 0-9 visual rating scale vs untreated control
CONDITIONS: 0.063 kg/ha
Note to self: values exactly at 4 are rule met. So Herbicidal effect rating, GLXMAW at or above 4 is rule met, below is rule not met.

Before answering, review these 4 worked examples.
* Cn1c(=O)[nH]c(=O)n(-c2cc(Oc3c(F)cc(C(F)(F)F)cc3Cl)ccc2F)c1=O [C, reference compound] | rule met
* COC(=O)Cn1c(=O)n(C)c(=O)n(-c2cc(Oc3c(F)cc(C(F)(F)F)cc3Cl)ccc2Br)c1=O [Compound 2] | rule met
* COC(=O)Cn1c(=O)n(C)c(=O)n(-c2cc(Oc3c(F)cc(C(F)(F)F)cc3Cl)ccc2F)c1=O [Compound 4] | rule met
* COC(=O)Cn1c(=O)n(C)c(=O)n(-c2cc(Oc3ccc(C(F)(F)F)cc3Cl)ccc2[N+](=O)[O-])c1=O [Compound 3] | rule met

Kindly consider the entry below.
For this compound, is measured Herbicidal effect rating, GLXMAW 4 or higher? Cn1c(=O)[nH]c(=O)n(-c2cc(Oc3c(F)cc(C(F)(F)F)cc3Cl)ccc2Br)c1=O [A, reference compound]
rule not met

----------
Reported SETVI rating is given for each of the following molecules.
System: SETARIA VIRIDIS, (L) BEAU
ASSAY REMARKS: Postemergence herbicidal evaluation, SETVI (Foxtail, Green)
Type: in vivo
Design: key: 0-9 visual rating scale vs untreated control
CONDITIONS: Rate 0.250 kg/ha
Lab note: write the figure by itself, no unit.

Take a look at these entries with their results.
- COC(=O)Cn1c(=O)n(C)c(=O)n(-c2cc(Oc3ncc(C(F)(F)F)cc3Cl)ccc2Br)c1=O: 9.0
- COC(=O)Cn1c(=O)n(C)c(=O)n(-c2cc(Oc3ccc(SC)cc3Cl)ccc2[N+](=O)[O-])c1=O: 0.0
- COC(=O)Cn1c(=O)n(C)c(=O)n(-c2cc(Oc3cc(Cl)cc(Cl)c3Cl)ccc2[N+](=O)[O-])c1=O: 0.0

Recall and state the measured SETVI rating for COC(=O)Cn1c(=O)n(C)c(=O)n(-c2cc(Oc3cc(Cl)cc(Cl)c3)ccc2[N+](=O)[O-])c1=O .
0.0

Recall and state the measured SETVI rating for CC(C)OC(=O)Cn1c(=O)n(C)c(=O)n(-c2cc(Oc3ncc(C(F)(F)F)cc3Cl)ccc2Br)c1=O .
9.0

Recall and state the measured SETVI rating for COC(=O)Cn1c(=O)n(C)c(=O)n(-c2cc(Oc3ccc(C#N)cc3)ccc2[N+](=O)[O-])c1=O .
0.0

Recall and state the measured SETVI rating for Cn1c(=O)n(CC(N)=O)c(=O)n(-c2cccc(Oc3ccc(C(F)(F)F)cc3Cl)c2)c1=O .
0.0

Recall and state the measured SETVI rating for Cn1c(=O)n(CC(N)=O)c(=O)n(-c2cc(Oc3ncc(C(F)(F)F)cc3Cl)ccc2Br)c1=O .
1.0

----------
Tested on: ORYZA SATIVA, L. TEBONNET
ASSAY REMARKS: Rice tolerance to post-transplant applications under flooded paddy conditions, ORYSAT (Rice, Tebonnet);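 on ORYSAT herbicidal rating (rice tolerance): applied to flooded soil surface three days after transplanting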
Type: in vivo
CONDITIONS: post-transplant rice, Rate 0.125 kg/ha, rated three to four weeks after treatment
QUANTITY KIND: ORYSAT herbicidal rating (rice tolerance)
Lab note: write the figure by itself, no unit.

Recall and state the measured ORYSAT herbicidal rating (rice tolerance) for CCOC(=O)Cn1c(=O)n(CC(=O)OC)c(=O)n(-c2cc(Oc3ccc(C(F)(F)F)cc3Cl)ccc2[N+](=O)[O-])c1=O .
1.0

Recall and state the measured ORYSAT herbicidal rating (rice tolerance) for C#CCn1c(=O)n(CC(=O)OCC)c(=O)n(-c2cc(Oc3ccc(C(F)(F)F)cc3Cl)ccc2[N+](=O)[O-])c1=O .
0.0

Recall and state the measured ORYSAT herbicidal rating (rice tolerance) for COC(=O)Cn1c(=O)n(C)c(=O)n(-c2cc(Oc3c(F)cc(C(F)(F)F)cc3Cl)ccc2F)c1=O .
3.2

Recall and state the measured ORYSAT herbicidal rating (rice tolerance) for CCOC(=O)Cn1c(=O)[nH]c(=O)n(-c2cc(Oc3c(F)cc(C(F)(F)F)cc3Cl)ccc2C#N)c1=O .
1.0

Recall and state the measured ORYSAT herbicidal rating (rice tolerance) for CCOC(=O)Cn1c(=O)[nH]c(=O)n(-c2cc(Oc3ccc(C(F)(F)F)cc3Cl)ccc2[N+](=O)[O-])c1=O .
4.3

----------
Tested on: ORYZA SATIVA, L. TEBONNET
ASSAY REMARKS: Rice tolerance to post-transplant applications under flooded paddy conditions, ORYSAT (Rice, Tebonnet)
Type: in vivo
CONDITIONS: 0.250 kg/ha, post-transplant rice, 3-4 weeks after treatment
Reported Herbicidal effect rating, ORYSAT is given for each of the following molecules.

Take a look at these entries with their results.
• COC(=O)Cn1c(=O)n(C)c(=O)n(-c2cc(Oc3ccc(C(F)(F)F)cc3Cl)ccc2Cl)c1=O [Compound 39] = 5.0
• Cn1c(=O)n(CC(=O)OC(C)(C)C)c(=O)n(-c2cc(Oc3c(F)cc(C(F)(F)F)cc3Cl)ccc2F)c1=O [Compound 41] = 0.0
• COC(=O)Cn1c(=O)n(C)c(=O)n(-c2cc(Oc3ccc([S+](C)[O-])cc3Cl)ccc2[N+](=O)[O-])c1=O (stereo not shown) [Compound 36] = 0.0

Next, consider the following molecule.
Recall and state the measured Herbicidal effect rating, ORYSAT for COC(=O)Cn1c(=O)n(C)c(=O)n(-c2cc(Oc3ccc(F)cc3C(F)(F)F)ccc2[N+](=O)[O-])c1=O [Compound 21] .
0.0
